measurementTarget: T1, purified recombinant IFNAR-1 extracellular fragment (human, UniProt P17181 28-436)
T1 construct: extracellular domain; also called soluble IFNAR-1; soluble IFNAR
T1 sequence (looked up): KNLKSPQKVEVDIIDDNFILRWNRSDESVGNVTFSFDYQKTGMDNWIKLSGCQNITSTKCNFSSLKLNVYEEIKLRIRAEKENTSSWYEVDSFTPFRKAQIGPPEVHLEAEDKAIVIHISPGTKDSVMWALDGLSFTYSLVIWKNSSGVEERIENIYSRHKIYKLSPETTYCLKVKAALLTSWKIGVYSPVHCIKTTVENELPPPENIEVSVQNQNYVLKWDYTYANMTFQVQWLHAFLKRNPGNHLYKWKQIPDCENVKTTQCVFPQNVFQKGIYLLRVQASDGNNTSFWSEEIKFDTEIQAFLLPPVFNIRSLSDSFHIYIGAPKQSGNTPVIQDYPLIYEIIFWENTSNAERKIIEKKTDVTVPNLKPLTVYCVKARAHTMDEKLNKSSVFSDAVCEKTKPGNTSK
assaySummary: Biacore, response on IFNAR-1 (flow cell 2) divided by response on anti-human IgG Fc (flow cell 4)
assayMetric: % activity relative to H3K1 (%)
Write the answer as a number in %, unit excluded.

binder	assayMetric	reportedResult
M3K1 (antibody, V domains shown, also called heavy chain M3 with light chain K1) VH: EVQLLESGGGLVQPGGSLRLSCAFSGFTLSTSGMGIGWVRQAPGKGLEWVAHIWWDDDKYYNPSLKSRFTISRDTSKNTVYLQMNSLRAEDTAVYYCARNYYPYDAWFDYWGQGTLVTVS VL: DIQMTQSPSSLSASVGDRVTITCSASSSINSNHLHWYQQKPGKAPKLLIYRTSILASGVPSRFSGSGSGTSFTLTISSLQPEDFATYYCQQGSNIPFTFGQGTKVEIKR	% activity relative to H3K1	140

Challenge: What measured % activity relative to H3K1 goes with DI M3 heavy chain with K1 light chain (antibody, human IgG4, V domains shown, also called DI M3 K1) VH: EVQLLESGGGLVQPGGSLRLSCAASGFTMSTSGMGIGWIRQTPGKGLEWVAHIWWDDDKYYNPSLKSRFTISKDTSKNTLYLQMNSLRAEDTAVYYCARNYYPYDAWFDYWGQGTLVTVS VL: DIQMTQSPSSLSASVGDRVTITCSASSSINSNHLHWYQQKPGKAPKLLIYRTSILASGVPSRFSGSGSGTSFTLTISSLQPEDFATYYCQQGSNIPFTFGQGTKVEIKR ?
Response given: 137

Challenge: Bench note: what % activity relative to H3K1 did H3K1 (IgG4) (antibody, V domains shown, also called H3K1 standard; humanized anti-IFNAR-1 mAb H3K1) VH: EVQLVESGGGLVQPGGSLRLSCAFSGFTLSTSGMGIGWVRQAPGKGLEWVAHIWWDDDKYYNPSLKSRFTISRDTSKNTVYLQMNSLRAEDTAVYYCARNYYPYDAWFDYWGQGTLVTVS VL: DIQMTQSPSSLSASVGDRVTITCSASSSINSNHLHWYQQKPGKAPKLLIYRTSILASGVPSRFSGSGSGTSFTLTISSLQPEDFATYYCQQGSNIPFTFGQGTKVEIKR show?
Response given: 100

Challenge: Give the measured % activity relative to H3K1 of M3 heavy chain with DI K1 light chain (antibody, human IgG4, V domains shown, also called M3 DI K1) VH: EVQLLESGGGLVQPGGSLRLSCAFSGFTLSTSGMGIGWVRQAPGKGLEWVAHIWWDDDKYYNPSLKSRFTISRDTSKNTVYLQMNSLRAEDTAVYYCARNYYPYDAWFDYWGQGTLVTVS VL: DIQMTQSPSSLSASVGDRATITCSASSSINSNHLHWYLQKPGKAPKALIYRTSILASGIPSRFSGSGSGTDFTLTISSLQPEDTATYYCQQGSNIPFTFGQGTKVEIKR .
Response given: 57

Challenge: What does the data say about its % activity relative to H3K1? Entry: M3-AB heavy chain with K1 light chain (antibody, human IgG4, V domains shown, also called M3-A/B K1) VH: EVQLLESGGGLVQPGGSLRLSCAFSGFTLSTSGAGIGWVRQAPGKGLEWVAHIWWDDDKYYNPSLKARFTISRDTSKNTVYLQMNSLRAEDTAVYYCARNYYPYDAWFDYWGQGTLVTVS VL: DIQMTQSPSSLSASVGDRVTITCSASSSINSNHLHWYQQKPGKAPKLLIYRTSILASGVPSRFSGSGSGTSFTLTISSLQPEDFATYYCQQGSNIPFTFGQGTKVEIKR
Response given: 43

Challenge: I'd like to know its % activity relative to H3K1. The binder in question is M3 heavy chain with K1-CD light chain (antibody, human IgG4, V domains shown, also called M3 K1-C/D) VH: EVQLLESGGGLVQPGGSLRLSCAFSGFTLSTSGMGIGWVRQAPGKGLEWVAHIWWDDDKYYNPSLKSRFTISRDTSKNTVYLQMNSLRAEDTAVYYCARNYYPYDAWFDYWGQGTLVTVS VL: DIQMTQSPSSLSASVGDRVTITCSASTSINSNHLNWYQQKPGKAPKLLIYRTSILASGVPSRFSGSGSGTSFTLTISSLQPEDFATYYCQQGSNIPFTFGQGTKVEIKR
Response given: 57

Challenge: Query (binder): M3-B heavy chain with K1 light chain (antibody, human IgG4, V domains shown, also called M3-B K1) VH: EVQLLESGGGLVQPGGSLRLSCAFSGFTLSTSGMGIGWVRQAPGKGLEWVAHIWWDDDKYYNPSLKARFTISRDTSKNTVYLQMNSLRAEDTAVYYCARNYYPYDAWFDYWGQGTLVTVS VL: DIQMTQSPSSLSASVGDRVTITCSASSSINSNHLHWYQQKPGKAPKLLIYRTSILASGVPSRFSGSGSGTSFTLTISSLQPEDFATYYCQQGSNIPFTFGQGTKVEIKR ; field requested: % activity relative to H3K1
Response given: 103

Just for reference, patent US20050208041A1 is where these values come from.
